Sourced from patent US20240343803A1

Recorded % relative activity parental antibody/tested antibody for the following binders
assay-target: T1, human PVRIG-his (AcroBiosystems, Cat NO. PVG-H52H4) (human, UniProt Q6DKI7 41-171, limits assumed)
T1 construct: also called human PVRIG protein
T1 sequence (looked up): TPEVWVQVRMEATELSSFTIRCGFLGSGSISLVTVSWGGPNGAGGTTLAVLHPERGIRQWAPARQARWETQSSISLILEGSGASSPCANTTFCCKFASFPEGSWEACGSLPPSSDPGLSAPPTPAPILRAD
experiment: ELISA, antigen coated
A complete answer gives the number and then names the unit.

Consider the reported % relative activity parental antibody/tested antibody for these binders:
{"binder": "PVRIG-A118-H7 (Fc fusion, humanized variant of PVRIG-A118; also called A118.VH7; not shown: constant part not restated for the humanized forms; parents are VHH-hinge-CH2-CH3 of human IgG1; detected by anti-human) EVQLVESGGGLVQPGGSLRLSCAASETYFDLYVMGWYRQAPGKDRELVATITYTGSIKYVDSVKGRFTISRGDAKNSLYLQMNSLRAEDTAVYFCNADPSGLGRKVYWGQGTMVTVSS", "experimental-result": "99.9%"}
{"binder": "PVRIG-A105-H3 (Fc fusion, humanized variant of PVRIG-A105; also called A105.VH3; not shown: constant part not restated for the humanized forms; parents are VHH-hinge-CH2-CH3 of human IgG1; detected by anti-human) EVQLVESGGGLVQPGGSLRLSCAASGRTFDRHTMTWFRQAPGKEREFVATASRIPGDTYYVDSVKGRFTISRDNAKNSVYLQMNSLRAEDTAVYYCAATSAYCSEVDCYEKGSWYDNWGQGTMVTVSS", "experimental-result": "125%"}
{"binder": "PVRIG-A118-H3 (Fc fusion, humanized variant of PVRIG-A118; also called A118.VH3; not shown: constant part not restated for the humanized forms; parents are VHH-hinge-CH2-CH3 of human IgG1; detected by anti-human) EVQLVESGGGLVQPGGSLRLSCAASETYFDLYVMGWYRQAPGKDRELVATITYTGSIKYVDSVKGRFTISRGDAKNSLYLQMNSLRAEDTAVYYCNADPSGLGRKVYWGQGTMVTVSS", "experimental-result": "100%"}
{"binder": "PVRIG-A50-H1d (Fc fusion, humanized variant of PVRIG-A50; also called A50.VH1d; not shown: constant part not restated for the humanized forms; parents are VHH-hinge-CH2-CH3 of human IgG1; detected by anti-human) EVQLVESGGGLVQPGGSLRLSCAASGFTFSYYDMSWVRQAPGKGLEWVSTINSNGGRTSYVDSVKGRFTISRDNSKNTLYLQMNSLRAEDTAVYYCVEGDPHNFGLESLSLRDFGSWGQGTMVTVSS", "experimental-result": "118%"}

Asked: Please give the measured % relative activity parental antibody/tested antibody for this binder: PVRIG-A118-H2 (Fc fusion, humanized variant of PVRIG-A118; also called A118.VH2; not shown: constant part not restated for the humanized forms; parents are VHH-hinge-CH2-CH3 of human IgG1; detected by anti-human) EVQLVESGGGLVQPGGSLRLSCAASETYFDLYVMGWYRQAPGKDRELVATITYTGSIKYVDSVKGRFTISRDNAKNSLYLQMNSLRAEDTAVYYCNADPSGLGRKVYWGQGTMVTVSS
Given back: 102%

Asked: Please give the measured % relative activity parental antibody/tested antibody for this binder: PVRIG-A118-H1 (Fc fusion, humanized variant of PVRIG-A118; also called A118.VH1; not shown: constant part not restated for the humanized forms; parents are VHH-hinge-CH2-CH3 of human IgG1; detected by anti-human) EVQLVESGGGLVQPGGSLRLSCAASETYFDLYVMGWYRQAPGKDRELVATITYTGSIYYVDSVKGRFTISRDNAKNSLYLQMNSLRAEDTAVYYCNADPSGLGRKVYWGQGTMVTVSS
Given back: 110%

Asked: Please give the measured % relative activity parental antibody/tested antibody for this binder: PVRIG-A50-H1b (Fc fusion, humanized variant of PVRIG-A50; also called A50.VH1b; not shown: constant part not restated for the humanized forms; parents are VHH-hinge-CH2-CH3 of human IgG1; detected by anti-human) EVQLVESGGGLVQPGGSLRLSCAASGFTFSYYDMSWVRQAPGKGLEWVSTINSDGGRTSYVDSVKGRFTISRDNSKNTLYLQMNSLRAEDTAVYYCVEGDPHNFGLESLSLRDFGSWGQGTMVTVSS
Given back: 111%

Asked: Please give the measured % relative activity parental antibody/tested antibody for this binder: PVRIG-A105-H1 (Fc fusion, humanized variant of PVRIG-A105; also called A105.VH1; not shown: constant part not restated for the humanized forms; parents are VHH-hinge-CH2-CH3 of human IgG1; detected by anti-human) EVQLVESGGGLVQPGGSLRLSCAASGRTFDRHTMSWFRQAPGKEREFVATASRIPGDTYYVDSVKGRFTISRDNAKNSLYLQMNSLRAEDTAVYYCAATSAYCSEVDCYEKGSWYDNWGQGTMVTVSS
Given back: 150%
